- measurement_protocol: Half life in rat at 0.01 mg/kg, iv
- Format: ADME, organism-based
- setup_conditions: in vivo
reported_endpoint: half-life

Qu. Item O=C(O)c1csc(SCCN2C(=O)OC[C@@H]2/C=C/[C@@H](O)C2(CCCCF)CCC2)n1 : provide half-life
Ans. 4.4 h
